Attribute: melting point

These solved cases illustrate the format of a correct answer.
O=C1C2C(C(=O)N1CCCCN1CCN(c3ccccn3)CC1)C1(c3ccccc3)C(=O)C2(c2ccccc2)c2c1c1ccccc1c1ccccc21 (stereo not shown) [Compound 3] :: 200 to 203 °C
CC(=O)c1ccc(N2CCN(CCCCN3C(=O)C4C(C3=O)C3(c5ccccc5)C(=O)C4(c4ccccc4)c4c3c3ccccc3c3ccccc43)CC2)cc1 (stereo not shown) [Compound 8] :: 202 to 204 °C
O=C1C2C(C(=O)N1CCCCN1CCN(c3ccc(Cl)cc3)CC1)C1(c3ccccc3)C(=O)C2(c2ccccc2)c2c1c1ccccc1c1ccccc21 (stereo not shown) [Compound 6] :: 220 to 221 °C
COc1ccccc1N1CCN(CCCCn2c(=O)c3c(-c4ccccc4)c4c(=O)c5ccccc5c4c(-c4ccccc4)c3c2=O)CC1 [Compound 19] :: 245 to 246 °C
COc1ccccc1N1CCN(CCCCN2C(=O)C3C(C2=O)C2(c4ccccc4)C(=O)C3(c3ccccc3)c3c2c2ccccc2c2ccccc32)CC1 (stereo not shown) [Compound 4] :: 197 to 200 °C

Provide only the value of recorded melting point for O=c1cccc2cc3c(-c4ccccc4)c4c(=O)n(CCCCBr)c(=O)c4c(-c4ccccc4)c3c1-2
241 to 242 °C

Read the entry O=C1C2C(C(=O)N1CCCCN1CCN(c3ccccc3F)CC1)C1(c3ccccc3)C(=O)C2(c2ccccc2)c2c1c1ccccc1c1ccccc21 (stereo not shown) [Compound 7] and write its reported melting point.
205 to 207 °C

====

Assay: Cytotoxicity assay in MT-4 cells (MTT method)
Type: cell-based, human
Conditions: human; mock-infected MT-4 cells, 96 h, MTT method; read-out: CC50: compound concentration required to reduce the viability of mock-infected MT-4 cells by 50 %
readout_label: CC50 at 96 h

Below: 5 compounds and their reported CC50 at 96 h.
O=C1C2C(C(=O)N1CCCCN1CCN(c3ccc(Cl)cc3)CC1)C1(c3ccccc3)C(=O)C2(c2ccccc2)c2c1c1ccccc1c1ccccc21 (stereo not drawn) :: > 100 µM
O=C1C2C(C(=O)N1CCCCN1CCN(c3ccccc3F)CC1)C1(c3ccccc3)C(=O)C2(c2ccccc2)c2c1c1ccccc1c1ccccc21 (stereo not drawn) :: > 100 µM
O=C1C2C(C(=O)N1CCCCN1CCN(c3ccccn3)CC1)C1(c3ccccc3)C(=O)C2(c2ccccc2)c2c1c1ccccc1c1ccccc21 (stereo not drawn) :: 90 µM
COc1ccccc1N1CCN(CCCCn2c(=O)c3c(-c4ccccc4)c4c(=O)c5ccccc5c4c(-c4ccccc4)c3c2=O)CC1 :: > 100 µM
CC(=O)c1ccc(N2CCN(CCCCN3C(=O)C4C(C3=O)C3(c5ccccc5)C(=O)C4(c4ccccc4)c4c3c3ccccc3c3ccccc43)CC2)cc1 (stereo not drawn) :: > 100 µM

Proceeding to the next compound to report its CC50 at 96 h.
Query CC50 at 96 h for O=C1Nc2ccc(Cl)cc2[C@@](C#CC2CC2)(C(F)(F)F)O1 [Efavirenz, reference compound]
45 µM

====

Tested on: MT-4 cells
Assay: Cytotoxicity assay in MT-4 cells (MTT method)
Type: cell-based, human
Measured CC50, listed per entry.

Reference set, count: 2
O=c1c2ccccc2c2c(-c3ccccc3)c3c(=O)n(CCCCN4CCN(c5ccc(Cl)cc5)CC4)c(=O)c3c(-c3ccccc3)c12 :: > 100 µM
O=c1[nH]c(=O)c2c(-c3ccccc3)c3c(c(-c4ccccc4)c12)c(=O)c1ccccc13 :: 9 µM

Look up and state reported CC50 for O=c1c2ccccc2c2c(-c3ccccc3)c3c(=O)n(CCCCN4CCN(c5ccccc5Cl)CC4)c(=O)c3c(-c3ccccc3)c12
> 100 µM
